experiment: qHTS assay to identify small molecule that activate the aryl hydrocarbon receptor (AhR) signaling pathway - cell viability counter screen (AID 743086);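 further: HepG2 liver cells carrying the AhR DRE luciferase reporter; on the % scale 0 is the no-effect control and ±100 the full control effect; nearly all actives have a fitted effect of over 45% in size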
experimental-setup: HepG2-AhR-luc viability, CellTiter-Fluor, 24 h; series mostly up to 70.3 µM
Source text: U.S. Tox21 Program National Center for Advancing Translational Sciences [NCATS] NIH Chemical Genomics Center [NCGC] U.S. Environmental Protection Agency [EPA] National Institutes of Environmental Health Sciences [NIEHS] National Toxicology Program [NTP] U.S. Food and Drug Administration [FDA] Tox21 Assay overview: The Aryl hydrocarbon Receptor (AhR), a member of the family of basic helix-loop-helix transcription factors, is crucial to adaptive responses to environmental changes. […]
Inconclusive results are not listed. Calls of active or inactive are those of the source. The call rests on the fitted dose curve; in most records, active means well fitted cell-killing curve with a large enough effect in the repeat runs; inconclusive means weak or mixed curves, or effect the other way; inactive means flat fitted curve, though single readings scatter.
reported-metric: outcome

compound: N[C@@H](Cc1ccc(O)cc1)C(=O)O
outcome: inactive

compound: CC1=C(C(=O)O)N2C(=O)[C@@H](NC(=O)[C@H](N)C3=CCC=CC3)[C@H]2SC1
outcome: inactive

compound: OCCN1CCOCC1
outcome: inactive

compound: C/C(CC(C)C)=N\O
outcome: inactive

compound: ONc1ccccc1
outcome: inactive

Problem: # outcome lookup, item C/C=C(\C)C(=O)OCCc1ccccc1
Solution: inactive

Problem: # outcome lookup, item CCCC(=O)Nc1ccc(OCC(O)CNC(C)C)c(C(C)=O)c1 (centres undefined)
Solution: inactive

Problem: # outcome lookup, item CC1(C)Oc2ccc(C#N)cc2[C@@H](N2CCCC2=O)[C@@H]1O
Solution: inactive

Problem: # outcome lookup, item O=C1OCCO1
Solution: inactive

---

assayed-target: Thyrotropin-releasing hormone receptor (Homo sapiens)
experiment: qHTS assay to identify small molecule agonists of the thyrotropin-releasing hormone receptor (TRHR) signaling pathway (AID 1346891);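 further: HEK293 cells expressing TRHR with calcium dye readout; on the % scale 0 is the no-effect control and ±100 the full control effect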
experimental-setup: TRHR-HEK293 calcium fluorescence, agonist mode; series mostly up to 57.6 µM
Calls of active or inactive are those of the source. The call rests on the fitted dose curve.
reported-metric: activation

As a guide, the following entries are already answered.
compound: N[C@@H](CSCCCO)C(=O)O
reported-metric: activation
observed-value: -0.038% [at 11.8 µM] (inactive)
--
compound: CCn1cc(C(=O)O)c(=O)c2cnc(N3CCCC3)nc21
reported-metric: activation
observed-value: -0.507% [at 5.23 µM] (inactive)
--
compound: COc1cc2c(cc1OC)C(=O)C(CC1CCN(Cc3ccccc3)CC1)C2 (stereo unspecified)
reported-metric: activation
observed-value: inactive
--
compound: C=CCCCCCCCC
reported-metric: activation
observed-value: inactive
--
compound: Cn1c(=O)c2[nH]c(Br)nc2n(C)c1=O
reported-metric: activation
observed-value: inactive
--
compound: CNCCS(=O)(=O)O
reported-metric: activation
observed-value: inactive
--
compound: O=C(O)CSCC(=O)NC1CCSC1=O (stereo unspecified)
reported-metric: activation
observed-value: inactive
--
compound: C=CCSSCCC
reported-metric: activation
observed-value: inactive

Problem: # activation lookup, item COC(=O)c1cc(Cl)cc(Cl)c1
Solution: inactive

Problem: # activation lookup, item CCCCOCC(C)O (stereo unspecified)
Solution: inactive

Problem: # activation lookup, item CC1c2ccccc2CN1NC(=O)c1ccc(Cl)c(S(N)(=O)=O)c1 (stereo unspecified)
Solution: inactive

Problem: # activation lookup, item N[C@@H](Cc1ccc(O)cc1)C(=O)O
Solution: -0.36% [at 5.23 µM] (inactive)

Problem: # activation lookup, item C/C=C(\C)C(=O)OCCc1ccccc1
Solution: inactive

Problem: # activation lookup, item Cc1c(C(=O)c2c[nH]n(C)c2=O)ccc(S(C)(=O)=O)c1C1=NOCC1
Solution: inactive

Problem: # activation lookup, item CCCCCCC1(C)CCC(=O)O1 (stereo unspecified)
Solution: inactive

Problem: # activation lookup, item O=[N+]([O-])c1c(Cl)cc(Cl)cc1Cl
Solution: inactive

Problem: # activation lookup, item CCCCOC(=O)[C@H](C)O
Solution: inactive

---

assayed-target: Cytochrome P450 3A4 (Homo sapiens) (UniProt P08684)
Sequence (P08684 whole entry, looked up): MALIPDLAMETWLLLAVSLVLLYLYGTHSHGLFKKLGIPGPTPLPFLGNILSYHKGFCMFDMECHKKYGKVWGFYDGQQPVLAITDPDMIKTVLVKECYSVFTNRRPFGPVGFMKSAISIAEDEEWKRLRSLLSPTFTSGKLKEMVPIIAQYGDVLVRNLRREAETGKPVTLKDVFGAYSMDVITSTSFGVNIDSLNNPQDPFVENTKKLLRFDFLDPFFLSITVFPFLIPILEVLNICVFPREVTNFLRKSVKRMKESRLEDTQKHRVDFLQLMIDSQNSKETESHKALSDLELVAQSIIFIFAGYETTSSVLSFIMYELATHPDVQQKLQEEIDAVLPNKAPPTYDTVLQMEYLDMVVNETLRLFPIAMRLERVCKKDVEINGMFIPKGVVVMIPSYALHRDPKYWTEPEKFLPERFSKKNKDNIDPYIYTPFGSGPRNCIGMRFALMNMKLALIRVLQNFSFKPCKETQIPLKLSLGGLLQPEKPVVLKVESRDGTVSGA
experiment: Cytochrome P450 Family 3 Subfamily A Member 4 (CYP3A4) small molecule antagonists: luciferase reporter qHTS assay (AID 1671201); further: nearly all actives have a fitted effect of over 50% in size
experimental-setup: P450-Glo CYP3A4 enzyme, luciferin luminescence, 1 h; series mostly up to 115 µM
Results filed as inconclusive are left out. Activity calls are given as the source filed them. Calls come from the whole dose curve; as a rule, active = well fitted inhibition curve with a large enough effect in the repeat runs; inconclusive = weak or mixed curves; inactive = no such curve, though single readings can be large or run the other way.
Returns: one label drawn from active, inactive

Problem: Outcome logged for CC1c2ccccc2CN1NC(=O)c1ccc(Cl)c(S(N)(=O)=O)c1 (configuration not stated) in this assay:
Solution: inactive

Problem: Outcome logged for Cc1ccccc1C(N)=O in this assay:
Solution: inactive

Problem: Outcome logged for O=C(CN1CCNCC1)NC1CCCCC1 in this assay:
Solution: inactive

Problem: Outcome logged for CCCC(=O)OCCC(C)CCC=C(C)C (configuration not stated) in this assay:
Solution: active

Problem: Outcome logged for CCCCSCCCC in this assay:
Solution: inactive

Problem: Outcome logged for C/C(CC(C)C)=N\O in this assay:
Solution: inactive

Problem: Outcome logged for CN(C)CCCO[C@@H]1[C@H]2OC(C)(C)O[C@H]2O[C@@H]1C(O)CO (some centres not stated) in this assay:
Solution: inactive

---

experiment: qHTS assay to test for compound auto fluorescence at 460 nm (blue) in HEK293 cells (AID 720678); further: on the % scale 0 is the no-effect control and ±100 the full control effect
experimental-setup: blue autofluorescence 405/460 nm; series mostly up to 91.3 µM
The source made the active and inactive calls. The call rests on the fitted dose curve; in most records, active means well fitted curve in the direction sought with a large enough effect in the repeat runs; inconclusive means weak or mixed curves; inactive means flat fitted curve, though single readings scatter.
reported-metric: fluorescence, % of triamterene

As a guide, the following entries are already answered.
molecule: CCCC(=O)OC/C=C(\C)CCC=C(C)C
reported-metric: fluorescence, % of triamterene
observed-value: inactive
--
molecule: CCCSSCCC
reported-metric: fluorescence, % of triamterene
observed-value: inactive
--
molecule: CC1OCCC1=O (stereo not drawn)
reported-metric: fluorescence, % of triamterene
observed-value: inactive
--
molecule: COc1ccc(CCO)cc1
reported-metric: fluorescence, % of triamterene
observed-value: inactive
--
molecule: CCn1cc(C(=O)O)c(=O)c2cnc(N3CCCC3)nc21
reported-metric: fluorescence, % of triamterene
observed-value: 0.0274% [at 18.6 µM] (inactive)

Problem: # fluorescence, % of triamterene lookup, item C[C@]12CCC(=O)C=C1CC[C@H]1[C@@H]3CC[C@](O)(C(=O)CO)[C@@]3(C)C[C@H](O)[C@@]12F
Solution: inactive

Problem: # fluorescence, % of triamterene lookup, item Cc1ccc(C(=O)O)cc1[N+](=O)[O-]
Solution: inactive

Problem: # fluorescence, % of triamterene lookup, item CCCCCCCCCOC(=O)CCCCC(=O)OCCCCCCC
Solution: inactive

Problem: # fluorescence, % of triamterene lookup, item CC1(C)Cc2cccc(N)c2O1
Solution: inactive

Problem: # fluorescence, % of triamterene lookup, item COc1ccc2c(c1)c1c3n2CCN(C)C3=NCC1
Solution: inactive

---

assayed-target: Peroxisome proliferator-activated receptor gamma (Homo sapiens) (UniProt P37231)
Sequence (P37231 whole entry, looked up): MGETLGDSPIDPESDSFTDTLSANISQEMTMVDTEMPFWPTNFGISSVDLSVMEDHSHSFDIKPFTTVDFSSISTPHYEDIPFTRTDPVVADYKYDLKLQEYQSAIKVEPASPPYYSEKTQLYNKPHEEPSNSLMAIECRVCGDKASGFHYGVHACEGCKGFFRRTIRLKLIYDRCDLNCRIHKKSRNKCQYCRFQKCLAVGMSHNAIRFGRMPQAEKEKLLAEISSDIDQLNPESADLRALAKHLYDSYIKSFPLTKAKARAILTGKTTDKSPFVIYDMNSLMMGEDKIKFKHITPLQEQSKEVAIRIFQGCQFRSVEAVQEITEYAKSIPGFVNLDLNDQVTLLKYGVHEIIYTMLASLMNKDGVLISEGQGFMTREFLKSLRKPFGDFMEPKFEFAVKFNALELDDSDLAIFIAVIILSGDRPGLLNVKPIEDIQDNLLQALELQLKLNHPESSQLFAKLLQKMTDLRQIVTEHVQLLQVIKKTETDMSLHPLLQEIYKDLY
experiment: qHTS assay to identify small molecule antagonists of the peroxisome proliferator-activated receptor gamma (PPARg) signaling pathway (AID 743191); further: on the % scale 0 is the no-effect control and ±100 the full control effect; nearly all actives have a fitted effect of over 30% in size
experimental-setup: HEK293H PPARg-UAS-bla, beta-lactamase ratio, antagonist, 17 h; series mostly up to 62.6 µM
Inconclusive results are not listed. Activity calls are given as the source filed them. Calls follow the shape of the full dose curve. Positions of bridges follow the written chain, without caps; N, C: chain ends. Non-standard residues stand in square brackets, D forms with d. Residues, ends and D or L forms follow the SMILES beside them. hArg = N=C(N)NCCCC[C@H](N)C(=O)O; Mpa = O=C(O)CCS
reported-metric: outcome

compound: NC(=O)[C@@H]1CSSCCC(=O)N[C@@H](CCCCN=C(N)N)C(=O)NCC(=O)N[C@@H](CC(=O)O)C(=O)N[C@@H](Cc2c[nH]c3ccccc23)C(=O)N2CCC[C@H]2C(=O)N1 ([Mpa][hArg]GDWPC-NH2; disulfide 1-7)
assayed-target: Peroxisome proliferator-activated receptor gamma (Homo sapiens) (UniProt P37231)
outcome: inactive
--
compound: NCCOCCN
assayed-target: Peroxisome proliferator-activated receptor gamma (Homo sapiens) (UniProt P37231)
outcome: inactive
--
compound: Cc1ccnc(N)c1
assayed-target: Peroxisome proliferator-activated receptor gamma (Homo sapiens) (UniProt P37231)
outcome: inactive
--
compound: CC(=O)C(C)O (stereo unspecified)
assayed-target: Peroxisome proliferator-activated receptor gamma (Homo sapiens) (UniProt P37231)
outcome: inactive
--
compound: O=C(Cn1ccnc1[N+](=O)[O-])NCc1ccccc1
assayed-target: Peroxisome proliferator-activated receptor gamma (Homo sapiens) (UniProt P37231)
outcome: inactive

Problem: # outcome lookup, item C[C@H]1[C@@H](c2ccccc2)NC(=O)N1C
Solution: inactive

Problem: # outcome lookup, item CCOc1cccc(N)c1
Solution: inactive

Problem: # outcome lookup, item COC(C)(OC)OC
Solution: inactive

Problem: # outcome lookup, item COC(=O)c1cccc(Cl)c1
Solution: inactive

Problem: # outcome lookup, item CCC(C)C(=O)OCCc1ccccc1 (stereo unspecified)
Solution: inactive

Problem: # outcome lookup, item Cc1ncc([N+](=O)[O-])n1CC(C)O (stereo unspecified)
Solution: inactive

Problem: # outcome lookup, item CO[Si](CCCn1c(=O)n(CCC[Si](OC)(OC)OC)c(=O)n(CCC[Si](OC)(OC)OC)c1=O)(OC)OC
Solution: inactive
